tested on: Plasmodium falciparum; assay: Antimalarial activity against Plasmodium falciparum K1; format: functional; details: Plasmodium falciparum, K1; read-out: ED50 (the source's name)
REPORTED PROPERTY: pEC50
Lab note — pEC50 values are minus log10 of concentrations in M.

COC(=O)N1CCC(CN(C2Cc3cc(C#N)ccc3N(Cc3cncn3C)C2)S(=O)(=O)c2ccc(C(=O)O)o2)CC1 (stereo not drawn) ... 6.17

Data point: COC(=O)NCCCN(C1Cc2cc(C#N)ccc2N(Cc2cncn2C)C1)S(=O)(=O)c1cn(C)cn1 (stereo not drawn) ; pEC50 = 7.77

Data point: Cn1cncc1CN1CC(N(Cc2cccc3nsnc23)S(=O)(=O)c2ccccn2)Cc2cc(C#N)ccc21 (stereo not drawn) ; pEC50 = 7.01

Data point: Cn1cncc1CN1CC(N(Cc2ccccc2F)S(=O)(=O)c2ccccn2)Cc2cc(C#N)ccc21 (stereo not drawn) ; pEC50 = 5.90

Data point: Cn1cncc1CN1CC(N(CCn2cccn2)S(=O)(=O)c2ccccn2)Cc2cc(C#N)ccc21 (stereo not drawn) ; pEC50 = 7.70
